The values you see were collected from PubChem BioAssay AID1159580.

experiment: chemical genetic growth profiling, strain panel (AID 1159580);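 note: tested at 20 µM; growth read once vehicle control cultures reached saturation at 30 °C; 1 = growth at the plate median or of vehicle wells; lower values mean less growth of the strain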; conditions: S. cerevisiae deletion strains, growth OD, locus YBR023C, strain chs3, hits give low values
Hit rate of the full screen: of about 5,500 compounds, about 2,000 (36%) were called active. Another 18% or so got no clear call; they are omitted. The list shows a part of the results.
Recorded endpoint: normalized growth
Numbers only.

# example entries with known answers
1) CCOC(=O)C(C)(C)Oc1ccc(Cl)cc1: 0.985
2) COc1ccc(OC)c(C(O)C(C)N)c1 (stereo unspecified): 0.998
3) Cc1[nH]c(C)c(Cl)c(=O)c1Cl: 1

Can you give me normalized growth for all of these, one by one?
1. O=C(O)c1cc2ccccc2[nH]1
2. O=C(O)c1c2ccccc2cc2ccccc12
3. CC(C(=O)O)c1ccc(-c2ccccc2)c(F)c1 (stereo unspecified)

[0.994, 1.01, 1.02]

====

assay: chemical genetic growth profiling, strain panel (AID 1159580); settings: S. cerevisiae deletion strains, growth OD, locus YDR392W, strain spt3, hits give low values
Hit rate of the full screen: of about 5,500 compounds, about 2,000 (36%) were called active. About 18% were inconclusive and are not listed. The list shows a part of the results.
Recorded endpoint: normalized growth
Give bare numbers.

Some solved cases for reference:
1) COc1cc(O)c(C(=O)/C=C/c2ccc(O)c(OC)c2)c(OC)c1: 0.532
2) CC1CC2C3CCC4=CC(=O)C=C[C@]4(C)[C@@]3(F)[C@@H](O)C[C@]2(C)[C@@]1(O)C(=O)CO (stereo not given in full): 0.904
3) COc1cc2c(cc1OC)[C@@H]1C(=O)c3ccc(OC)c(CC=C(C)C)c3O[C@@H]1CO2: 0.813
4) COc1ccc2c(c1OC)C(=O)O[C@H]2[C@H]1c2cc3c(cc2CCN1C)OCO3: 0.928

Proceeding to the next compound to report its normalized growth.
Form: compound = CN[C@@H](C)[C@@H](O)c1ccccc1 ; normalized growth = 0.911

====

assay: chemical genetic growth profiling, strain panel (AID 1159580); details: S. cerevisiae deletion strains, growth OD, locus YJL115W, strain asf1, hits give low values
Among all 5,500 compounds or so, about 2,000 (36%) were called active. About 18% were inconclusive and are not listed. The list shows a part of the results.
Record form. Attribute: normalized growth. Fill in for each entry.
Answers are plain numbers.

Consider the reported normalized growth for these molecules:
1. COc1ccc2c3c1O[C@H]1C[C@@H](O)C=C[C@@]31CCN(C)C2: 1.01
2. ClC1=C(Cl)C2(Cl)C3C(Cl)C=CC3C1(Cl)C2(Cl)Cl (stereo not drawn): 0.995
3. CC1(C)OC(=O)NC1=O: 0.992
4. CCCCCCCCCCCCCCCC(=O)OC/C=C(C)/C=C/C=C(C)/C=C/C1=C(C)CCCC1(C)C: 1.02
5. CCOC(=O)CCC(=O)O[C@H]1[C@H](O[C@@H]2[C@@H](C)[C@H](O[C@H]3C[C@@](C)(OC)[C@@H](O)[C@H](C)O3)[C@@H](C)C(=O)O[C@H](CC)[C@@](C)(O)[C@H](O)[C@@H](C)C(=O)[C@H](C)C[C@@]2(C)O)O[C@H](C)C[C@@H]1N(C)C: 1
6. NC(=O)C(c1ccccc1)(c1ccccc1)C1CCN(CCc2ccc3c(c2)CCO3)C1 (stereo not drawn): 1.02

I need normalized growth for every entry listed below, if you could help.
1. COc1cc(O)c(C(=O)/C=C/c2ccc(OC)c(O)c2)c(OC)c1
2. COc1ccc2c(c1)OCc1c-2oc2cc(OC)ccc12
3. CC1CC2C3CC(F)C4=CC(=O)C=CC4(C)C3(F)C(O)CC2(C)C1(O)C(=O)CO (stereo not drawn)

1. 1
2. 0.995
3. 1.01

====

assay: chemical genetic growth profiling, strain panel (AID 1159580);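 note: tested at 20 µM; growth read once vehicle control cultures reached saturation at 30 °C; 1 = growth at the plate median or of vehicle wells; lower values mean less growth of the strain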; settings: S. cerevisiae deletion strains, growth OD, locus YLR058C, strain SHM2 (second series)
Out of some 5,500 compounds screened, about 2,000 (36%) were called active. Roughly 18% stayed inconclusive and do not appear here. Rule as the data show it: active = normalized growth mostly below about 0.91 (no sharp cut-off); inconclusive = no clear call, values can overlap the other calls; inactive = mostly above about 0.92. The list shows a part of the results.
Lab note: assign the record to one of active, inactive

Worked cases, answers included:
1) CC12CCC3C(CCC4=CC(=O)CCC43CO)C1CCC2OC(=O)c1ccccc1 (stereo not drawn): inactive
2) Cc1ccc(NC(=S)NNC(C)(C)C)cc1: inactive
3) CC(C)(C)c1cc(-c2csc(-c3ccc(Cl)cc3)n2)cc(C(C)(C)C)c1O: inactive
4) Cc1ccc(-c2csc(-c3ccc(Cl)cc3)n2)c(C)c1: inactive
5) CC(C)(C)c1ccc(-c2nc(-c3cc(C(C)(C)C)c(O)c(C(C)(C)C)c3)cs2)cc1: inactive
6) O=C(CSc1nnnn1-c1ccccc1)NC1Cc2ccccc2C1: inactive
7) CCOc1ccc(/C=C(\C#N)c2cccc(Cl)c2)cc1: inactive
8) CSc1nnnn1-c1c(C)cccc1C: inactive

Please let me know the test result on file for COc1ccc(NC(=O)c2cc(C(F)(F)F)cc(C(F)(F)F)c2)cn1 .
active

Assay outcome for COc1cc2c(cc1OC)CC(=O)OC2 : what was it?
inactive

Please share the test call associated with O=C1c2cccc3c([N+](=O)[O-])ccc(c23)C(=O)N1Cc1ccco1 .
inactive

For this molecule, state the assay outcome: CCOC(=O)COc1nc(-c2cccs2)cc(C(F)(F)F)c1C#N
inactive

What classification did O=S(=O)(Nc1cccc2cccnc12)c1cc(Cl)c(Cl)cc1Cl end up with in this test?
inactive

====

assay: chemical genetic growth profiling, strain panel (AID 1159580);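 note: tested at 20 µM; growth read once vehicle control cultures reached saturation at 30 °C; 1 = growth at the plate median or of vehicle wells; lower values mean less growth of the strain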; conditions: S. cerevisiae deletion strains, growth OD, locus YDL101C, strain DUN1
In all, about 5,500 compounds went through this assay and about 2,000 (36%) were called active. Roughly 18% stayed inconclusive and do not appear here. Cut-off read from the data, not from the text of the source: active = normalized growth mostly below about 0.91 (no sharp cut-off); inconclusive = no clear call, values can overlap the other calls; inactive = mostly above about 0.92. The list shows a part of the results.
Your response should consist of one outcome taken from yes = active, no = inactive

Examples from the recorded data:
1. CN(C)c1ccc(C(=C2C=CC(=[N+](C)C)C=C2)c2ccc(N(C)C)cc2)cc1: yes
2. CC(C)(OC(=O)c1ccccc1)[C@@H]1Cc2cc3ccc(=O)oc3cc2O1: no
3. CC(C[N+](C)(C)C)OC(N)=O (stereo not drawn): no
4. CC(=O)c1c(O)c(C)c(O)c2c1oc1c(C(C)=O)c(O)c(C)c(O)c12: no
5. COc1cccc(OC)c1C(C)(O)C(OC)OC (stereo not drawn): no
6. CC(=O)[C@H]1CCC2C3CCC4=CC(=O)CC[C@]4(C)C3CC[C@@]21C (stereo partly drawn): no
7. Cc1ccc(Sc2c(Sc3ccc(C)cc3)c(=O)c2=O)cc1: no
8. CCOC(=O)C1CCN(C(=S)Nc2ccccc2C(F)(F)F)CC1: no

Record request — test call for CC1=C(C(C)O)C2=NC1C=c1[nH]c(c(C)c1C(C)O)=Cc1[nH]c(c(CCC(=O)O)c1C)C=c1[nH]c(c(C)c1CCC(=O)O)=C2 (stereo not drawn)
no

Per the records of this test, what outcome belongs to CC(C(=O)O)c1ccc(-c2ccccc2)c(F)c1 (stereo not drawn) ?
no

Per the records of this test, what outcome belongs to C=C(C)[C@@H]1[C@H]2OC(=O)[C@@H]1[C@]1(O)C[C@H]3O[C@]34C(=O)O[C@H]2[C@]14C ?
no

Hi team, can someone confirm the assay call for ClC1=C(Cl)C2(Cl)C3C4C=CC(C4)C3C1(Cl)C2(Cl)Cl (stereo not drawn) ?
no

Just curious, what result did CCOC(=O)C(=CNc1cccc(C#N)c1)C(=O)OCC get here?
no

Lab log entry: N[C@@H](C(=O)O)c1ccccc1 — outcome as called in the assay?
no

Hi, do you know how COc1ccc(OC)c(C(O)C(C)N)c1 (stereo not drawn) came out in this test?
no

GET /call?item= O=C(O)c1cc2ccccc2[nH]1 returns the recorded outcome of this test.
no

Hi, do you know how Cc1ccc(OCC2SCCN2C(=O)c2ccc(C(F)(F)F)cc2)c([N+](=O)[O-])c1 (stereo not drawn) came out in this test?
no

Answer briefly: the call reported for CCN(CC)CCNC(=O)c1cc(Br)c(N)cc1OC in this assay.
no

====

test: chemical genetic growth profiling, strain panel (AID 1159580);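 note: tested at 20 µM; growth read once vehicle control cultures reached saturation at 30 °C; 1 = growth at the plate median or of vehicle wells; lower values mean less growth of the strain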; conditions: S. cerevisiae deletion strains, growth OD, locus YDL101C, strain DUN1, hits give low values
About 2,000 (36%) of roughly 5,500 compounds were called active. Roughly 18% stayed inconclusive and do not appear here. Some of the results follow.
I'd appreciate it if you could supply normalized growth values for the items below.

Solved entries (count: 3):
1. CC(N)C(=O)OC(C)(C)Cc1ccc(Cl)cc1 (stereo not drawn): 0.983 (inactive)
2. CCC(C)C(OC(C)=O)C(=O)OC1C(O)C2C3(C)C=CC(=O)C(C)(C)C3CC(OC(=O)C(O)C(C)C)C2(C)C23OC2CC(c2ccoc2)C13C (stereo not drawn): 1 (inactive)
3. Cc1ccc(NC(=S)NNC(C)(C)C)cc1: 0.971 (inactive)

Dear colleague, could you send me normalized growth for each of the items below? Thanks.
1. CCOC(=O)[C@H](CCc1ccccc1)N[C@H]1CCc2ccccc2N(CC(=O)O)C1=O
2. COC1=CC(=O)C[C@@H](C)[C@]12Oc1c(Cl)c(OC)cc(OC)c1C2=O
3. O=C(O)C1(O)C[C@@H](O)C(O)[C@H](O)C1 (stereo partly drawn)
4. COc1ccc2c3c1O[C@H]1C[C@@H](O)C=C[C@@]31CCN(C)C2
5. Cc1cccc(Cn2c(C)c(C)c(S(=O)(=O)c3ccccc3)c2N)c1C
6. CCOC(=O)c1cnc2cc(C)nn2c1C
7. CCOC(=O)C(C)(C)Oc1ccc(Cl)cc1

1. 0.983 (inactive)
2. 1 (inactive)
3. 1.01 (inactive)
4. 0.996 (inactive)
5. 0.98 (inactive)
6. 0.997 (inactive)
7. 0.999 (inactive)

Would you be so kind as to report normalized growth for each listed record?
1. C[N+](C)(C)CCCCCC[N+](C)(C)C
2. CC(Oc1ccccc1)C(=O)N[C@@H]1C(=O)N2[C@@H]1SC(C)(C)[C@@H]2C(=O)O (stereo partly drawn)
3. CC1CC2C3CC(F)C4=CC(=O)C=CC4(C)C3(F)C(O)CC2(C)C1(O)C(=O)CO (stereo not drawn)

1: 0.993 (inactive); 2: 1.02 (inactive); 3: 1.02 (inactive)
